assay_notes: Dog PK study
Format: in vivo, beagle dogs
reported_conditions: male, beagle, dog, in vivo, po, 10 mg/kg
assay_metric: Tmax (min)

> print(dat)
                                   compound  units.text  reported.measurement
1  CS(=O)(=O)c1ccc2c(c1)N(CCCN1CCC(C(N)=O)CC1)c1ccccc1S2 [MPZ, metopimazine]         min                    50

====

Some compounds, each annotated with its measured Cmax.
assay_notes: Rat PK study
Format: in vivo, Sprague Dawley rats
reported_conditions: female, Sprague Dawley, rat, in vivo, po, 45 mg/kg
assay_metric: Cmax (ng/mL)

> print(dat)
                                   compound  reported.measurement
1  CS(=O)(=O)c1ccc2c(c1)N(CCCN1CCC(C(N)=O)CC1)c1ccccc1S2 [MPZ, metopimazine]                  1730
2  CS(=O)(=O)c1ccc2c(c1)N(CCCN1CCC(C(=O)O)CC1)c1ccccc1S2 [MPZA, metopimazine acid]                   106
